- MEASUREMENT TARGET: T1, cell surface human mesothelin (MSLN) (human, UniProt Q13421 296-598)
- T1 construct: whole, on cells; also called cell surface MSLN
- T1 sequence (Q13421 other isoform, or with tags, fused parts or gaps limits assumed): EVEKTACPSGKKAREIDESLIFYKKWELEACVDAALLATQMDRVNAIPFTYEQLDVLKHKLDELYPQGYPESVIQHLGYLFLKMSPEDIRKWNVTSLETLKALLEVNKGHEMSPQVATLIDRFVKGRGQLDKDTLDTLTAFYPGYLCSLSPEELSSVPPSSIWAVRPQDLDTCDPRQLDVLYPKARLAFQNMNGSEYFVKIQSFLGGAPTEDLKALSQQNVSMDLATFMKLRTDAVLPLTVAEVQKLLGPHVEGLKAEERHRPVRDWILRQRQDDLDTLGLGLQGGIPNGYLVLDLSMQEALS
- ASSAY DETAILS: flow cytometry, NCI-H226 cells
- Procedure: Cells were centrifuged at 1200 rpm for 3 min and resuspended in ice cold FACS buffer made up of DPBS (Life Technologies, 14190169) and 1% BSA (Sigma-Aldrich, A7906) at 2×10⁶ cells/ml and 50 μl per well was seeded in a 96-well V-bottom plate (Costar, 3894). […] The cells were washed once with 150 μl FACS buffer and then with 150 μl DPBS, resuspended in 150 μl DPBS containing DAPI (Biotium, 40043) at 1:10.000 and read on the BDCantoll or iQue (Intellicyt). […]
READOUT NAME: pEC50
// pEC50 is dimensionless: -log10 of concentration (M)

FS22-053-008-AA/FS28-256-027 mAb^2 (bispecific antibody, human IgG1, kappa, L234A L235A, V domains shown) VH: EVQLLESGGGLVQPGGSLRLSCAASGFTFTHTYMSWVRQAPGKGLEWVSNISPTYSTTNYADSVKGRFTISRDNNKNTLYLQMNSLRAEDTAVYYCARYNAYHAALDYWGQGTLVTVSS VL: EIVLTQSPGTLSLSPGERATLSCRASQSVSSSYLAWYQQKPGQAPRLLIYGASSRATGIPDRFSGSGSGTDFTLTISRLEPEDFAVYYCQQTVPYPYTFGQGTKVEIKR	8.41

Entry under review: FS22-053-008-AA/FS28-024-052 mAb^2 (bispecific antibody, human IgG1, kappa, L234A L235A, V domains shown, also called FS28-024-52) VH: EVQLLESGGGLVQPGGSLRLSCAASGFTLSYSSMSWVRQAPGKGLEWVSFITPSTGYTHYADSVKGRFTISRDNSKNTLYLQMNSLRAEDTAVYYCARRALLFDYWGQGTLVTVSS VL: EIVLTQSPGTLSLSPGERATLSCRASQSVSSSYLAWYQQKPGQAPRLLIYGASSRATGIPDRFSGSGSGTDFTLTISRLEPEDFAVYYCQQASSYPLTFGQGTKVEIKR . Reported pEC50?
8.88

// same read-out, input: FS22-053-008-AA/FS28-024-051 mAb^2 (bispecific antibody, human IgG1, kappa, L234A L235A, V domains shown, also called FS28-024-51) VH: EVQLLESGGGLVQPGGSLRLSCAASGFTLSYSSMSWVRQAPGKGLEWVSFITPSTGYTHYADSVKGRFTISRDNSKNTLYLQMNSLRAEDTAVYYCARRALIFDYWGQGTLVTVSS VL: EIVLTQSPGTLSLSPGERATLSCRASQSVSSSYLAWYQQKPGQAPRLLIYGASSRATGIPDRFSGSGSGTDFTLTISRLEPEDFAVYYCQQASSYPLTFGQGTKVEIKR
9.11

Please give the result for FS22-053-008-AA/FS28-024-060 mAb^2 (bispecific antibody, human IgG1, kappa, L234A L235A, V domains shown) VH: EVQLLESGGGLVQPGGSLRLSCAASGFTLSYSSMSWVRQAPGKGLEWVSFITPSTGYTHYADSVKGRFTISRDNSKNTLYLQMNSLRAEDTAVYYCARRALWFDYWGQGTLVTVSS VL: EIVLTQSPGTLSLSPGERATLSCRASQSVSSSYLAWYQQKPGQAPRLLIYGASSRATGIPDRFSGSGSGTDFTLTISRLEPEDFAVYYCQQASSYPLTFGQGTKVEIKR too.
8.84

Note, next up: FS22-053-008-AA/FS28-256-001 mAb^2 (bispecific antibody, human IgG1, kappa, L234A L235A, V domains shown) VH: EVQLLESGGGLVQPGGSLRLSCAASGFTFTETYMSWVRQAPGKGLEWVSNISPTYSTTNYADSVKGRFTISRDNSKNTLYLQMNSLRAEDTAVYYCARYNSYQGGLDYWGQGTLVTVSS VL: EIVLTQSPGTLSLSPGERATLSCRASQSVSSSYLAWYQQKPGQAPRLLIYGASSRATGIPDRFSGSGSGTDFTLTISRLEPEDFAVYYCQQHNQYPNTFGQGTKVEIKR
8.30

Likewise for FS22-053-008-AA/FS28-256-012 mAb^2 (bispecific antibody, human IgG1, kappa, L234A L235A, V domains shown) VH: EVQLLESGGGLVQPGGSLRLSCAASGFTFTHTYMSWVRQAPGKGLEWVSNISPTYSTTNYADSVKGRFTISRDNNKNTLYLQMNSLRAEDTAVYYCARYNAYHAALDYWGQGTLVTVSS VL: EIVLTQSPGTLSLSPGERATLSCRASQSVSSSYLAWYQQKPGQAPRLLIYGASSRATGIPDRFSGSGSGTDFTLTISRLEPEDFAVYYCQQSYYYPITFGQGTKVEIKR ?
8.07

Now consider FS22-053-008-AA/FS28-024-053 mAb^2 (bispecific antibody, human IgG1, kappa, L234A L235A, V domains shown, also called FS28-024-53) VH: EVQLLESGGGLVQPGGSLRLSCAASGFTLSYSSMSWVRQAPGKGLEWVSFITPSTGYTHYADSVKGRFTISRDNSKNTLYLQMNSLRAEDTAVYYCARRALVFDYWGQGTLVTVSS VL: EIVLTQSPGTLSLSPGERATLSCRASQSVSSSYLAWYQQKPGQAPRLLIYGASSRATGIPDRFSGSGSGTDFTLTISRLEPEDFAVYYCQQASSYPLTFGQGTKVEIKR and answer again.
8.92

And for FS22-053-008-AA/FS28-024 mAb^2 (bispecific antibody, human IgG1, kappa, L234A L235A, V domains shown, also called FS28-024 (in FS22-053-008-AA mAb^2 format); FS28-024 (in CD137 mAb2 format)) VH: EVQLLESGGGLVQPGGSLRLSCAASGFTLSYSSMSWVRQAPGKGLEWVSFITPSTGYTHYADSVKGRFTISRDNSKNTLYLQMNSLRAEDTAVYYCARRALTFDYWGQGTLVTVSS VL: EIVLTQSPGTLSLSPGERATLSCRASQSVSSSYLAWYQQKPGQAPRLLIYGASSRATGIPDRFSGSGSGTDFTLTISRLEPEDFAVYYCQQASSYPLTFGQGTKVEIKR ?
8.83

Field entry: FS22-053-008-AA/FS28-256-018 mAb^2 (bispecific antibody, human IgG1, kappa, L234A L235A, V domains shown) VH: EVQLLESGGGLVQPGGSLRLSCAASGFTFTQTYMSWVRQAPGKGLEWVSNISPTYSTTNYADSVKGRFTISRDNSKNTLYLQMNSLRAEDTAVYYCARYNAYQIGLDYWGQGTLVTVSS VL: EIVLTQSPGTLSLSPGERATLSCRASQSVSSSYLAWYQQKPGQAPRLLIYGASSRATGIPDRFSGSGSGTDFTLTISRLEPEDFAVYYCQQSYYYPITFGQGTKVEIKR
8.16

Query FS22-053-008-AA/FS28-256-024 mAb^2 (bispecific antibody, human IgG1, kappa, L234A L235A, V domains shown) VH: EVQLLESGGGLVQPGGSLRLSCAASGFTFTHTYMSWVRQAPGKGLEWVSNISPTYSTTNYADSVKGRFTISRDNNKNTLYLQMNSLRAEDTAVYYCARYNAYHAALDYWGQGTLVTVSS VL: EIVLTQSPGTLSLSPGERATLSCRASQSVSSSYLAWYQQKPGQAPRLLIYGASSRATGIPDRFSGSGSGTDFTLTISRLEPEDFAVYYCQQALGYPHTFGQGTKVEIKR next
8.41
